Source listed as patent US20240109865A1.

Molecular target: FGFR3 (V555M) (Homo sapiens (Human), UniProt P22607, V555M)
Sequence (P22607 23-806 V555M): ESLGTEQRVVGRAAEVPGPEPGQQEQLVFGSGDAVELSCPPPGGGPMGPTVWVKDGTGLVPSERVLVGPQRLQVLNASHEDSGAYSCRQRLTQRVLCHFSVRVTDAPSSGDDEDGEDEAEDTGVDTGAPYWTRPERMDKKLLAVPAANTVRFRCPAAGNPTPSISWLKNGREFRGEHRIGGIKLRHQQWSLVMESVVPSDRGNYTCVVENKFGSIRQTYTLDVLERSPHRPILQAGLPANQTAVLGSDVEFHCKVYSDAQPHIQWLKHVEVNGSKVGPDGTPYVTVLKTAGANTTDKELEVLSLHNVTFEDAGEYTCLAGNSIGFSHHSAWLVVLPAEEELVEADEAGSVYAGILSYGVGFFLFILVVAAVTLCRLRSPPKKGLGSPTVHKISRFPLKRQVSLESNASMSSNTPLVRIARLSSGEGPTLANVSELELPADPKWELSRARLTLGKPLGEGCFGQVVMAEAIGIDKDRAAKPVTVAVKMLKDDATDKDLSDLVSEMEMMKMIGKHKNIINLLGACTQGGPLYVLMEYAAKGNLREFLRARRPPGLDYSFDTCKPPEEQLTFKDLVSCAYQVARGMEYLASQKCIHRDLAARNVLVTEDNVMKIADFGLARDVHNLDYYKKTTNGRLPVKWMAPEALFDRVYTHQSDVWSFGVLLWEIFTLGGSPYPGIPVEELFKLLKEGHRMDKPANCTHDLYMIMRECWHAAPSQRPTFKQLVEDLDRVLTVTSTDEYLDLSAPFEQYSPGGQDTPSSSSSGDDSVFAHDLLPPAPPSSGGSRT
Assay: Kinase assay, binding constants (Kd), kinase-tagged T7 phage, qPCR
Conditions: V555M mutant
A collection of compounds and their measured Kd

Consider the reported Kd for these compounds:
compound: COc1cc(-c2n[nH]c3ccc(O[C@H](C)c4c(Cl)cncc4Cl)cc23)cnc1N1CCOCC1 [Example 105]
meas.value: 100 to 300 nM
--
compound: CCOC(=O)N1CC2(C1)CN(c1ccc(-c3n[nH]c4ccc(O[C@H](C)c5c(Cl)cnc(C)c5Cl)cc34)cn1)C2 [Example 190]
meas.value: 1 to 20 nM
--
compound: C[C@@H](Oc1ccc2[nH]nc(-c3ccc(C4CCNCC4)nc3)c2c1)c1c(Cl)cncc1Cl [Example 69]
meas.value: 1 to 20 nM
--
compound: C[C@@H](Oc1ccc2[nH]nc(-c3cnc(N4CC5(CCCNC5)C4)nc3)c2c1)c1c(Cl)cncc1Cl [Example 132]
meas.value: 1 to 20 nM
--
compound: CCOC(=O)N1CCCC2(C1)CN(c1ncc(-c3n[nH]c4ccc(O[C@H](C)c5c(Cl)cncc5Cl)cc34)cn1)C2 [Example 131]
meas.value: 1 to 20 nM

Suppose we examine the compound Cc1ncc(Cl)c([C@@H](C)Oc2ccc3[nH]nc(-c4ccc(N5CC6(CCOC6)C5)nc4)c3c2)c1Cl [Example 216] ; what Kd value has been reported?
1 to 20 nM

Suppose we examine the compound CCOC(=O)N1CC2(C1)CN(c1ncc(-c3n[nH]c4ccc(O[C@H](C)c5c(C)cnnc5C)cc34)cn1)C2 [Example 146] ; what Kd value has been reported?
1 to 20 nM
